Reported z-score values are given for each entry in this list.
- test-target: Metabotropic glutamate receptor 8 (Rattus norvegicus)
- experiment-summary: mGluR8 Gi/Go-coupled signaling modulation – cell-based, rat, thallium flux, HTS, primary screen (AID 488969)
- measurement-parameters: HEK293 rat mGluR8, GIRK (G protein-gated inwardly rectifying potassium channel) thallium flux, FluoZin2; at 10 µM; stronger effect = higher value; submaximal glutamate (EC20) added with thallium
Whole data set: some 110,000 compounds, median “z-score” near -0.1, cut for the highest 2% near 2. Only a selection was taken, and the highest values are over-represented in it overall.
Enter a number only.

Below: 5 compounds and their reported z-score.
O=C(OCCN1C(=O)CCC1=O)c1ccc(S(=O)(=O)N2CCCCC2)cc1 : -1.06
CCOC(=O)/C=C/C(=O)Nc1ccccc1-c1ccccc1NC(=O)/C=C/C(=O)OCC : -0.138
Cc1ccc(N=Nc2c(O)n(CN3CCOCC3)c3ccccc23)cc1 : -0.152
COc1ccc(-c2noc(CCC(=O)NC3CCN(Cc4ccccc4)CC3)n2)cc1 : 0.924
Cc1cc2nc3c(c(=O)n2[nH]1)CCCC3 : -0.219

Query :: Please give measured z-score of the following entry: "Cc1cccc(NS(=O)(=O)c2cc(C(=O)N3CCc4ccccc4C3)ccc2Cl)c1C"
Result :: -0.467

Query :: Given "Cc1ccc2c(Cl)cc(Cl)c(OCC(=O)Nc3cc(C)on3)c2n1" , respond with its z-score.
Result :: 0.0628
